These data points were gathered from patent US20140288074A1.

Tested on: Septoria nodorum
protocol_description: Test C: preventive spray on wheat seedlings, Septoria glume blotch, visual disease rating
Type: in vivo
condition_label: Parastagonospora nodorum, 264 h, 200 ppm test suspension, Septoria nodorum inoculated the day after spraying
measure_name: pest or weed control at 200 ppm (%)

compound="CNC(c1c(-c2c(F)cccc2Cl)c(C)nn1C)C(C)C (stereo not drawn)" quantitative_result=100
compound="Cc1nn(C)c(C(O)C2CCCCC2)c1-c1c(F)cccc1Cl (stereo not drawn)" quantitative_result=0
compound="Cc1nn(C)c(C(O)C(C)C)c1-c1c(F)cccc1Cl (stereo not drawn)" quantitative_result=98

----------
# Test A rating (disease control) values compiled below
Test system: Botrytis cinerea
protocol_description: Test A: preventive spray on tomato seedlings, tomato Botrytis, visual disease rating
Format: in vivo
condition_label: 200 ppm test suspension, Botrytis cinerea inoculated the day after spraying
measure_name: Test A rating (disease control) (%)

compound=CCCCNc1c(-c2ccc(F)cc2Br)c(C)nn1C measure_name="Test A rating (disease control)" quantitative_result=67
compound="Cc1nn(C)c(C(O)C2=CCCCC2)c1-c1c(F)cccc1F (stereo not shown)" measure_name="Test A rating (disease control)" quantitative_result=99
compound="Cc1nn(C)c(N2CCCCC2C)c1-c1ccc(F)cc1Cl (stereo not shown)" measure_name="Test A rating (disease control)" quantitative_result=73
compound="CCC(C)C(O)c1c(-c2c(F)cccc2F)c(C)nn1C (stereo not shown)" measure_name="Test A rating (disease control)" quantitative_result=67
compound=COCCNc1c(-c2c(F)cc(F)cc2F)c(C)nn1C measure_name="Test A rating (disease control)" quantitative_result=0
compound="Cc1nn(C)c(C(O)CC(C)C)c1-c1c(F)cccc1Cl (stereo not shown)" measure_name="Test A rating (disease control)" quantitative_result=92
compound=Cc1nn(C)c(NCC(C)C)c1-c1ccc(F)cc1Br measure_name="Test A rating (disease control)" quantitative_result=0
compound=Cc1nn(C)c(NC(C)C)c1-c1ccc(F)cc1F measure_name="Test A rating (disease control)" quantitative_result=65
compound="C=CCC(C)(C)C(O)c1c(-c2c(F)cccc2F)c(C)nn1C (stereo not shown)" measure_name="Test A rating (disease control)" quantitative_result=0
compound="CCCCC(CC)C(O)c1c(-c2c(F)cccc2F)c(C)nn1C (stereo not shown)" measure_name="Test A rating (disease control)" quantitative_result=0
compound=COCCNc1c(-c2ccc(F)cc2Br)c(C)nn1C measure_name="Test A rating (disease control)" quantitative_result=9
compound=Cc1nn(C)c(NCC2CC2)c1-c1ccc(F)cc1Br measure_name="Test A rating (disease control)" quantitative_result=98
compound=Cc1nn(C)c(NC(C)C)c1-c1c(F)cc(F)cc1F measure_name="Test A rating (disease control)" quantitative_result=40
compound="Cc1nn(C)c(C(O)C(C)(C)CCC#N)c1-c1c(F)cccc1F (stereo not shown)" measure_name="Test A rating (disease control)" quantitative_result=26
compound="Cc1nn(C)c(C(N)C(C)C)c1-c1c(F)cccc1Cl (stereo not shown)" measure_name="Test A rating (disease control)" quantitative_result=0
compound=Cc1nn(C)c(OCC(C)C)c1-c1ccc(F)cc1Cl measure_name="Test A rating (disease control)" quantitative_result=0
compound=Cc1nn(C)c(OC(C)C)c1-c1ccc(F)cc1Cl measure_name="Test A rating (disease control)" quantitative_result=0
compound=CCN(CC)c1c(-c2c(F)cc(F)cc2F)c(C)nn1C measure_name="Test A rating (disease control)" quantitative_result=38
compound=COCCN(CCOC)c1c(-c2c(F)cc(F)cc2F)c(C)nn1C measure_name="Test A rating (disease control)" quantitative_result=82
compound=CCN(CC)c1c(-c2ccc(F)cc2Br)c(C)nn1C measure_name="Test A rating (disease control)" quantitative_result=0
compound=CCCCN(CCCC)c1c(-c2ccc(F)cc2Br)c(C)nn1C measure_name="Test A rating (disease control)" quantitative_result=0
compound=CCCCNc1c(-c2c(F)cc(F)cc2F)c(C)nn1C measure_name="Test A rating (disease control)" quantitative_result=30
compound=Cc1nn(C)c(NCC(C)C)c1-c1c(F)cc(F)cc1F measure_name="Test A rating (disease control)" quantitative_result=95
compound=Cc1nn(C)c(N2CCCCC2)c1-c1ccc(F)cc1Cl measure_name="Test A rating (disease control)" quantitative_result=99
compound=COCCN(CCOC)c1c(-c2ccc(F)cc2Br)c(C)nn1C measure_name="Test A rating (disease control)" quantitative_result=0
